System: H1 or H9 human embryonic stem cells
Assay: Activin A bioassay: differentiation of human embryonic stem cells to definitive endoderm, cell number and SOX17 intensity by high content analysis (96-well, four days);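 note: total fluorescence of the cell multiplied by cell area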
Format: cell-based
Condition Details: supernatant concentration 10x, assay dilution 1:20
Assignment: determine reported Sox 17 Intensity average for the given molecules.
Answers are plain numbers.

Worked cases, Sox 17 Intensity average given:
Query (molecule): ACTN20: activin A variant peptide, SEQ ID 21 (protein) GLECDGKVNLCCKKQNFVSFKDIGWNDWIIAPSGYHANKCGGLCPSHIAGTSGSSLSFHSTVINHYRMRGHSPFAQMGACCIPTKLRPMSMLYYDDGQNIIKKDIQNMIVEECGCS ; field requested: Sox 17 Intensity average
1.52E+05

State the recorded Sox 17 Intensity average for this entry: ACTN11: activin A variant peptide, SEQ ID 12 (protein) GLECDGKVNLCCKKQLFVSFKDIGWNDWIIAPSGYHANHCSGLCPSHIAGTSGSSLSFHSTVINHYRMRGHSPFAQMGACCIPTKLRPMSMLYYDDGQNIIKKDIQNMIVEECGCS
4.06E+07

Which Sox 17 Intensity average value is on record for ACTN63: activin A variant peptide, SEQ ID 64 (protein) GLECDGKVNICCKKQSFSQAKDIGWNDWIIAPSGYHGGGCTGECPSHIAGTSGSSLSFHSTVINHYRMRGHSPFANLKSCCSPTKLRPMSMLYYDDGQNIIKKDIQGMVVEECGCT ?
2.28E+06

Can you look up the measured Sox 17 Intensity average of ACTN12: activin A variant peptide, SEQ ID 13 (protein) GLECDGKVNYCCKKQNFVSFKDIGWNDWIIAPSGYHANECSGLCPSHIAGTSGSSLSFHSTVINHYRMRGHSPFSQMGSCCIPTKLRPMSMLYYDDGQNIIKKDIQNMIVEECGCS for me?
7.65E+06

I am curious: what Sox 17 Intensity average value has been reported for ACTN21: activin A variant peptide, SEQ ID 22 (protein) GLECDGKVNYCCKKQWFVSFKDIGWNDWIIAPSGYHANKCSGKCPSHIAGTSGSSLSFHSTVINHYRMRGHSPFANMGSCCIPTKLRPMSMLYYDDGQNIIKKDIQNMIVEECGCS ?
4.89E+05

Can you share its Sox 17 Intensity average? I mean this molecule: ACTN45: activin A variant peptide, SEQ ID 46 (protein) GLECDGKVNTCCKKQNFVSFKDIGWNDWIIAPSGYHANECSGKCPSHIAGTSGSSLSFHSTVINHYRMRGHSPFANMGACCIPTKLRPMSMLYYDDGQNIIKKDIQNMIVEECGCS
1.13E+05

Give Sox 17 Intensity average for all molecules that follow.
1. ACTN35: activin A variant peptide, SEQ ID 36 (protein) GLECDGKVNLCCKKQDFVSFKDIGWNDWIIAPSGYHANRCSGKCPSHIAGTSGSSLSFHSTVINHYRMRGHSPFSDMGSCCVPTKLRPMSMLYYDDGQNIIKKDIQNMIVEECGCS
2. ACTN64: activin A variant peptide, SEQ ID 65 (protein) GLECDGKVNICCKKQSFGQTKDIGWNDWIIAPSGYHGGGCSGECPSHIAGTSGSSLSFHSTVINHYRMRGHSPWANLKSCCSPTKLRPMSMLYYDDGQNIIKKDIQGMVVEECGCT
3. ACTN62: activin A variant peptide, SEQ ID 63 (protein) GLECDGKVNICCKKQSFGQAKDIGWNDWIIAPSGYHGGGCTGECPSHIAGTSGSSLSFHSTVINHYRMRGHSPWANLKSCCSPTKLRPMSMLYYDDGQNIIKKDIQNMVVEECGCT
4. ACTN84: activin A variant peptide, SEQ ID 85 (protein) GLECDGKVNICCKKQSFGQAKDIGWNDWIIAPSGYHGGGCSGECPSHIAGTSGSSLSFHSTVINHYRMRGHSPFANLKSCCSPTKLRPMSMLYYDDGQNIIKKDIQNMVVEECGCT

["1.26E+06", "1.55E+06", "2.45E+05", "2.65E+05"]

Please state, for each entry, its recorded Sox 17 Intensity average.
1. ACTN6: activin A variant peptide, SEQ ID 7 (protein, Sytnthetic Construct) GLECDGKVNLCCKKQWFVSFKDIGWNDWIIAPSGYHANRCSGKCPSHIAGTSGSSLSFHSTVINHYRMRGHSPFADMGACCIPTKLRPMSMLYYDDGQNIIKKDIQNMIVEECGCS
2. ACTN22: activin A variant peptide, SEQ ID 23 (protein) GLECDGKVNLCCKKQDFVSFKDIGWNDWIIAPSGYHANRCDGLCPSHIAGTSGSSLSFHSTVINHYRMRGHSPFALMGACCIPTKLRPMSMLYYDDGQNIIKKDIQNMIVEECGCS
3. ACTN18: activin A variant peptide, SEQ ID 19 (protein) GLECDGKVNYCCKKQNFVSFKDIGWNDWIIAPSGYHANKCSGKCPSHIAGTSGSSLSFHSTVINHYRMRGHSPFSDMGACCIPTKLRPMSMLYYDDGQNIIKKDIQNMIVEECGCS

["2.272E+07", "3.69E+05", "1.22E+06"]

Sourced from patent US20110091971A1
